Here the recorded IC50 is given for each entry.
- SYSTEM_TESTED: UniProtKB P30304
- Sequence (P30304 whole entry): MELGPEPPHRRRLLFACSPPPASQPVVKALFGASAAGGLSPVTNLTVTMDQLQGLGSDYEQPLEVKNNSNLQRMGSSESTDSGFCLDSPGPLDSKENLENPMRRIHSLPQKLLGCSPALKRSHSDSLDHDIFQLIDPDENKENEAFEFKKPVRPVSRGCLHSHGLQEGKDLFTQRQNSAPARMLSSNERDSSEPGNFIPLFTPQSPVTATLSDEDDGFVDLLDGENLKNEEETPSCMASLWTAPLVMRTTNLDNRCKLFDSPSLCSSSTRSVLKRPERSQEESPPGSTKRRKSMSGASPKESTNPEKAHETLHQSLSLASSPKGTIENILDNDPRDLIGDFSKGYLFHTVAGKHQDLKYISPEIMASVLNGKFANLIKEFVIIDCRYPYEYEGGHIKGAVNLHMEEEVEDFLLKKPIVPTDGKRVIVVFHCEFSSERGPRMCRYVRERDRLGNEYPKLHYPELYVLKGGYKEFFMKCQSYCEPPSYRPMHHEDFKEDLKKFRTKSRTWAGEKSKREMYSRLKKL

{"columns": ["MOLECULE", "IC50"],
 "data": [
  ["COC(=O)/C=C1\\CCC[C@@]2(C)C1CC[C@@H]2[C@H](C)CCCC(C)C (stereo partly drawn)", "> 300 µM"],
  ["CC(C)CCC[C@@H](C)[C@H]1CCC2/C(=C/C(=O)O)CCC[C@@]21C (stereo partly drawn)", "7.7 µM"],
  ["CC(C)CCC[C@@H](C)[C@H]1CCC2/C(=C/C=C/C(=O)O)CCC[C@@]21C (stereo partly drawn)", "94 µM"]
]}

* * *

- Test system: SBC-5
- EXPERIMENT_NOTES: Inhibitory concentration required for antitumor activity against SBC-5 cells
- Format: functional, cell-based
- MEASUREMENT_SETUP: Homo sapiens

{"columns": ["MOLECULE", "SYSTEM_TESTED", "IC50"],
 "data": [
  ["CC(C)CCC[C@@H](C)[C@H]1CCC2C(CC(=O)O)CCC[C@@]21C (stereo partly specified)", "SBC-5", "> 100 µM"],
  ["CC(C)CCC[C@@H](C)[C@H]1CCC2/C(=C/C(=O)O)CCC[C@@]21C (stereo partly specified)", "SBC-5", "47 µM"],
  ["CC(C)CCC[C@@H](C)[C@H]1CCC2/C(=C/C=C/C(=O)O)CCC[C@@]21C (stereo partly specified)", "SBC-5", "42 µM"],
  ["COC(=O)CC1CCC[C@@]2(C)C1CC[C@@H]2[C@H](C)CCCC(C)C (stereo partly specified)", "SBC-5", "70 µM"],
  ["COC(=O)/C=C1\\CCC[C@@]2(C)C1CC[C@@H]2[C@H](C)CCCC(C)C (stereo partly specified)", "SBC-5", "71 µM"],
  ["CC(C)CCC[C@@H](C)[C@H]1CCC2C(CCCC(=O)O)CCC[C@@]21C (stereo partly specified)", "SBC-5", "> 100 µM"]
]}
